B1: ZNF8 (parent)
chain: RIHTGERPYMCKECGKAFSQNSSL

- Variants of: B1
- PROTOCOL: protein stability index of a GFP-peptide fusion (GPS, HEK-293T) (PSI 1-6); higher = more stable;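 note: lentivirally expressed fusions sorted by FACS into six bins by GFP to DsRed ratio, PSI derived from sequencing read proportions per bin multiplied by bin number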
- ASSAY CONTEXT: c terminus: a fixed tail appended
ASSAY METRIC: protein stability index

{"PRIMARY SEQUENCE": "RIHTGERPYMCKECGKAFSYNSSL [Q20Y]", "ASSAY METRIC": "protein stability index", "REPORTED MEASUREMENT": 2.06}
{"PRIMARY SEQUENCE": "RIHTGERSYMCKECGKAFSQNSSL [P8S]", "ASSAY METRIC": "protein stability index", "REPORTED MEASUREMENT": 2.44}
{"PRIMARY SEQUENCE": "RIHTGERPYMCKECGKAFSGNSSL [Q20G]", "ASSAY METRIC": "protein stability index", "REPORTED MEASUREMENT": 2.83}
{"PRIMARY SEQUENCE": "RIHTGEKPYMCKECGKAFSQNSSL [R7K]", "ASSAY METRIC": "protein stability index", "REPORTED MEASUREMENT": 2.35}
{"PRIMARY SEQUENCE": "RIHTGERPYMCKQCGKAFSQNSSL [E13Q]", "ASSAY METRIC": "protein stability index", "REPORTED MEASUREMENT": 2.24}
{"PRIMARY SEQUENCE": "RIHTYERPYMCKECGKAFSQNSSL [G5Y]", "ASSAY METRIC": "protein stability index", "REPORTED MEASUREMENT": 2.73}
{"PRIMARY SEQUENCE": "RIHTGERPYMCKECGKFFSQNSSL [A17F]", "ASSAY METRIC": "protein stability index", "REPORTED MEASUREMENT": 2.42}
{"PRIMARY SEQUENCE": "RIHTGERPYMCKECGKAFSQMSSL [N21M]", "ASSAY METRIC": "protein stability index", "REPORTED MEASUREMENT": 2.17}
{"PRIMARY SEQUENCE": "RIHTGERPYMGKECGKAFSQNSSL [C11G]", "ASSAY METRIC": "protein stability index", "REPORTED MEASUREMENT": 3.28}
{"PRIMARY SEQUENCE": "RTHTGERPYMCKECGKAFSQNSSL [I2T]", "ASSAY METRIC": "protein stability index", "REPORTED MEASUREMENT": 1.74}
{"PRIMARY SEQUENCE": "RIHTGERPYMCSECGKAFSQNSSL [K12S]", "ASSAY METRIC": "protein stability index", "REPORTED MEASUREMENT": 2.46}
